Cited source: patent US20240041042A1

- Test system: Verconica persica (VERPE)
- Method Description: Post-emergence herbicidal action against VERPE
- Assay type: in vivo
- Cond: dosage 80 g/ha
Recorded Post-emergence action against VERPE in %, one value per entry.

{"columns": ["Compound", "Test Target", "Post-emergence action against VERPE in %"],
 "data": [
  ["COC(=O)[C@@H](C)Oc1nn(-c2nc(F)ccc2F)c(-c2cncc(F)c2)c1Br [Example I-191]", "Verconica persica (VERPE)", "80%"],
  ["CCCOC(=O)COc1nn(-c2ncccc2F)c(-c2ccc(F)nc2)c1C1CC1 [Example I-344]", "Verconica persica (VERPE)", "90%"],
  ["COC(=O)[C@@H](C)Oc1nn(-c2ncccc2F)c(-c2cccnc2)c1Br [Example I-03]", "Verconica persica (VERPE)", "80%"],
  ["COC(=O)COc1nn(-c2nc(F)ccc2F)c(-c2cncc(F)c2)c1Br [Example I-210]", "Verconica persica (VERPE)", "90%"]
]}
